Just for reference, paper PMC7911516 is where these values come from.

TEST_PROTOCOL: Unbound fraction by rapid equilibrium dialysis
Format: in vitro ADME, rat
EXPERIMENTAL_CONDITIONS: SGF, 10 μM; read-out: fuSGF (fraction unbound in SGF)
MEASURED_PARAMETER: fraction unbound at 10 μM
Field format: numeric only.

According to the records, this compound COc1ccc(-c2cc(=O)c3c(O)cc(O)cc3o2)cc1 displays fraction unbound at 10 μM of 0.822

====

TEST_PROTOCOL: Unbound fraction by rapid equilibrium dialysis
Assay type: in vitro ADME, rat
EXPERIMENTAL_CONDITIONS: range over SGF and SIF; read-out: Unbound fraction in SGF and SIF
MEASURED_PARAMETER: fraction unbound at 10 μM

According to the records, this compound COc1ccc(-c2cc(=O)c3c(O)cc(O)cc3o2)cc1 [acacetin, Acacetin] displays fraction unbound at 10 μM of 0.707 to 0.849

====

TEST_PROTOCOL: Parallel artificial membrane permeability assay (PAMPA)
Format: in vitro ADME
EXPERIMENTAL_CONDITIONS: GIT PAMPA Double Sink
MEASURED_PARAMETER: Papp (×10⁻⁶ cm/s)
Note: unit ×10⁻⁶ cm/s is implicit; provide only the numeric part.

According to the records, this molecule CNC(=C[N+](=O)[O-])NCCSCc1ccc(CN(C)C)o1 [ranitidine, reference compound] displays Papp of 0.411

Let us move to another entry and its Papp.
According to the records, this molecule COc1ccc(-c2cc(=O)c3c(O)cc(O)cc3o2)cc1 [acacetin, Acacetin] displays Papp of 8.06

====

TEST_PROTOCOL: Distribution coefficients in octanol–water system
Format: physicochemical
EXPERIMENTAL_CONDITIONS: octanol/water, n-octanol/water, 25 °C
Protocol: Simulated gastric fluid (SGF) consisted of 0.2% (w/v) sodium chloride, 0.32% (w/v) pepsin, and 0.7% (v/v) HCl (final pH = 1.2). […] The solubility of acacetin was measured by adding excessive amounts of acacetin into glass vials containing 1.5 mL of water, pH 7.4 phosphate buffer, SGF, and SIF. […] Further, the concentration of acacetin in the filtrate was determined using the LC-MS/MS method. […] Finally, the acacetin concentrations in the octanol and water layers were determined using the LC-MS/MS method. […]
MEASURED_PARAMETER: logP

According to the records, this compound COc1ccc(-c2cc(=O)c3c(O)cc(O)cc3o2)cc1 displays logP of > 3

====

TEST_PROTOCOL: Intravenous pharmacokinetic study in rats
Type: in vivo
EXPERIMENTAL_CONDITIONS: rat, plasma, IV 10 mg/kg, read-out: Vss
MEASURED_PARAMETER: Vd (L/kg)
Note: unit L/kg is implicit; provide only the numeric part.

According to the records, this molecule COc1ccc(-c2cc(=O)c3c(O)cc(O)cc3o2)cc1 displays Vd of 2.22

====

TEST_PROTOCOL: Intravenous pharmacokinetic study in rats
Format: in vivo
EXPERIMENTAL_CONDITIONS: rat, IV 10 mg/kg, total plasma clearance, read-out: CL
MEASURED_PARAMETER: clearance
Quick note: unit goes after the number.

According to the records, this molecule COc1ccc(-c2cc(=O)c3c(O)cc(O)cc3o2)cc1 displays clearance of 199 mL/min/kg

====

TEST_PROTOCOL: Oral pharmacokinetic study in rats
Assay type: in vivo
EXPERIMENTAL_CONDITIONS: rat, urine, PO 100 mg/kg vs IV 10 mg/kg, from dose-normalized urinary excretion, read-out: F (absolute oral bioavailability)
MEASURED_PARAMETER: bioavailability (%)
Note: unit % is implicit; provide only the numeric part.

According to the records, this compound COc1ccc(-c2cc(=O)c3c(O)cc(O)cc3o2)cc1 displays bioavailability of 2.34

====

TEST_PROTOCOL: Unbound fraction by rapid equilibrium dialysis
Format: in vitro ADME, rat
EXPERIMENTAL_CONDITIONS: Sprague-Dawley, rat, liver microsomes (RLM); RLM, 10 μM; read-out: fuMIC (fraction unbound in microsomes)
MEASURED_PARAMETER: fraction unbound at 10 μM
Field format: numeric only.

According to the records, this molecule COc1ccc(-c2cc(=O)c3c(O)cc(O)cc3o2)cc1 [acacetin, Acacetin] displays fraction unbound at 10 μM of 0.302

====

TEST_PROTOCOL: Unbound fraction by rapid equilibrium dialysis
Format: in vitro ADME, rat
EXPERIMENTAL_CONDITIONS: Sprague-Dawley, rat, plasma and liver microsomes (RLM); range over plasma and RLM; read-out: Unbound fraction in plasma and RLM
Description: The fractions of unbound acacetin in plasma (fuP), microsomes (fuMIC), SGF (fuSGF), and SIF(fuSIF) were measured using a rapid equilibrium dialysis device (Thermo Fisher Scientific, Inc., Waltham, MA, USA) as previously described with slight modifications. […] The fractions of unbound acacetin were calculated as the concentration ratio between the two chambers. The blood-to-plasma concentration ratio (RB) of acacetin was determined as described previously. […]
MEASURED_PARAMETER: fraction unbound at 10 μM

According to the records, this compound COc1ccc(-c2cc(=O)c3c(O)cc(O)cc3o2)cc1 displays fraction unbound at 10 μM of 0.00901 to 0.317

====

TEST_PROTOCOL: Equilibrium solubility in water, pH 7.4 phosphate buffer, SGF and SIF
Type: physicochemical
EXPERIMENTAL_CONDITIONS: fassgf or other biorelevant, thermodynamic from solid; SIF pH 7.0, 37 °C, 48 h; read-out: Solubility, SIF
MEASURED_PARAMETER: solubility at 48 h (µg/mL)
Note: unit µg/mL is implicit; provide only the numeric part.

According to the records, this compound COc1ccc(-c2cc(=O)c3c(O)cc(O)cc3o2)cc1 displays solubility at 48 h of 0.119

====

TEST_PROTOCOL: Oral pharmacokinetic study in rats
Type: in vivo
EXPERIMENTAL_CONDITIONS: rat, plasma, PO 100 mg/kg
Procedure: The rats were fasted overnight before the experiment and anesthetized using an intramuscular injection of zoletil at 20 mg/kg. The femoral artery and vein were cannulated with a polyethylene tube (Clay Adams, Parsippany, NJ, USA). Acacetin (dissolved in a vehicle composed of DMSO, ethanol, and PEG400 (10:5:85, v/v/v)) was administered intravenously (10 mg/kg) or orally (100 mg/kg) to rats. […]
MEASURED_PARAMETER: AUC(0-t) (ng·h/mL)
Note: unit ng·h/mL is implicit; provide only the numeric part.

According to the records, this compound COc1ccc(-c2cc(=O)c3c(O)cc(O)cc3o2)cc1 displays AUC(0-t) of 12.9

====

TEST_PROTOCOL: Blood-to-plasma concentration ratio
Assay type: in vitro ADME
EXPERIMENTAL_CONDITIONS: Sprague-Dawley, rat, 37 °C, read-out: RB (blood-to-plasma concentration ratio)
MEASURED_PARAMETER: blood plasma ratio at 30 min, 1 μM

According to the records, this compound COc1ccc(-c2cc(=O)c3c(O)cc(O)cc3o2)cc1 [acacetin, Acacetin] displays blood plasma ratio at 30 min, 1 μM of ~1

====

TEST_PROTOCOL: Oral pharmacokinetic study in rats
Format: in vivo
EXPERIMENTAL_CONDITIONS: rat, plasma, PO 100 mg/kg, median (range)
MEASURED_PARAMETER: Tmax (min)
Note: unit min is implicit; provide only the numeric part.

According to the records, this compound COc1ccc(-c2cc(=O)c3c(O)cc(O)cc3o2)cc1 displays Tmax of 5

====

TEST_PROTOCOL: Intravenous pharmacokinetic study in rats
Format: in vivo
EXPERIMENTAL_CONDITIONS: Sprague-Dawley, rat, blood (plasma CL divided by RB), IV 10 mg/kg, read-out: Total blood clearance (CL/RB)
MEASURED_PARAMETER: clearance

According to the records, this compound COc1ccc(-c2cc(=O)c3c(O)cc(O)cc3o2)cc1 displays clearance of 11.5 L/h/kg

====

TEST_PROTOCOL: Equilibrium solubility in water, pH 7.4 phosphate buffer, SGF and SIF
Format: physicochemical
EXPERIMENTAL_CONDITIONS: thermodynamic from solid; water, 37 °C, 48 h; read-out: Solubility, Water
MEASURED_PARAMETER: solubility at 48 h (µg/mL)
Note: unit µg/mL is implicit; provide only the numeric part.

According to the records, this molecule COc1ccc(-c2cc(=O)c3c(O)cc(O)cc3o2)cc1 [acacetin, Acacetin] displays solubility at 48 h of 0.0401

====

TEST_PROTOCOL: Equilibrium solubility in water, pH 7.4 phosphate buffer, SGF and SIF
Format: physicochemical
EXPERIMENTAL_CONDITIONS: aqueous buffer, thermodynamic from solid; pH 7.4 phosphate buffer, 37 °C, 48 h; read-out: Solubility, pH 7.4 phosphate buffer
MEASURED_PARAMETER: solubility at 48 h (µg/mL)
Note: unit µg/mL is implicit; provide only the numeric part.

According to the records, this compound COc1ccc(-c2cc(=O)c3c(O)cc(O)cc3o2)cc1 displays solubility at 48 h of 0.0121
